Below, each entry is listed with its recorded log10 solubility.
Assay: Solubility of the compound at pH 7
Type: physicochemical
Settings: buffer
Please interpret these as log10 of solubility where solubility is in µM.

For orientation, consider the following solved cases.
NS(=O)(=O)c1cccc(NC(=O)c2cc(C(F)(F)F)cnc2N2CCCC(F)(F)C2)c1 ... 2.20
Cc1ccc(C(=O)Nc2cccc(S(N)(=O)=O)c2)c(N2CCCCC2)n1 ... 1.76
NS(=O)(=O)c1cccc(NC(=O)c2cc(C(F)(F)F)cnc2N2CCC3(CC2)CC3)c1 ... 1.72

Please report the measured log10 solubility for Cc1cnc(N2CCCCC2)c(C(=O)Nc2cccc(S(N)(=O)=O)c2)c1
1.15

Please report the measured log10 solubility for Cc1cc(C(=O)Nc2cccc(S(N)(=O)=O)c2)c(N2CCCCC2)nc1C
1.04

Please report the measured log10 solubility for NS(=O)(=O)c1cccc(NC(=O)c2cc(C(F)(F)F)cnc2N2CCCC2)c1
2.20

Please report the measured log10 solubility for NS(=O)(=O)c1cccc(NC(=O)c2cc(C(F)(F)F)cnc2N2CCCC(F)(F)CC2)c1
2.04

Please report the measured log10 solubility for NS(=O)(=O)c1cccc(NC(=O)c2cc(C(F)(F)F)cnc2N2CCC(F)(F)CC2)c1
2.18

Please report the measured log10 solubility for NS(=O)(=O)c1cccc(NC(=O)c2ccc(C(F)(F)F)nc2N2CCCCC2)c1
1.96

---

Experiment: Volume of distribution in rhesus monkey at 1 mg/kg, iv
Format: ADME, organism-based, Macaca mulatta
Settings: in vivo
Test Readout: Vd (L/kg)
Your answer is read as L/kg, so omit the unit and give the number.

Please report the measured Vd for NS(=O)(=O)c1cccc(NC(=O)c2cc(C(F)(F)F)cnc2N2CCC(F)(F)CC2)c1
1.68

---

Experiment: Solubility of the compound at pH 7
Assay type: physicochemical
Details: buffer
Test Readout: solubility (µM)
Your answer is read as µM, so omit the unit and give the number.

NS(=O)(=O)c1cccc(NC(=O)c2cc(C(F)(F)F)cnc2N2CCCCC2)c1 ... 120
NS(=O)(=O)c1cccc(NC(=O)c2cc(C(F)(F)F)cnc2N2CCCC3(CC3)C2)c1 ... 68

Please report the measured solubility for NS(=O)(=O)c1cccc(NC(=O)c2cc(C(F)(F)F)cnc2N2CCCCCC2)c1
120

---

Assay: Drug concentration in rhesus monkey plasma at 6 mg/kg, po
Assay type: ADME, organism-based, Macaca mulatta
Conditions: in vivo
Test Readout: concentration
The reply should consist of the numeric value with the unit placed after it.

Please report the measured concentration for NS(=O)(=O)c1cccc(NC(=O)c2cc(C(F)(F)F)cnc2N2CCC(F)(F)CC2)c1
6.11 µM

---

Experiment: Volume of distribution in rat at 2 mg/kg, iv
Format: ADME, organism-based
Settings: in vivo
Test Readout: Vd
The reply should consist of the numeric value with the unit placed after it.

Please report the measured Vd for NS(=O)(=O)c1cccc(NC(=O)c2cc(C(F)(F)F)cnc2N2CCC(F)(F)CC2)c1
1.3 L/kg

---

Assay: Bioavailability in rhesus monkey at 2 mg/kg, po or 1 mg/kg, iv
Assay type: ADME, organism-based, Macaca mulatta
Settings: in vivo
Test Readout: bioavailability (%)
Your answer is read as %, so omit the unit and give the number.

Please report the measured bioavailability for NS(=O)(=O)c1cccc(NC(=O)c2cc(C(F)(F)F)cnc2N2CCC(F)(F)CC2)c1
77

---

Assay: Bioavailability in dog at 2 mg/kg, po or 1 mg/kg, iv
Type: ADME, organism-based, Canis lupus familiaris
Settings: in vivo
Test Readout: bioavailability (%)
Your answer is read as %, so omit the unit and give the number.

Please report the measured bioavailability for NS(=O)(=O)c1cccc(NC(=O)c2cc(C(F)(F)F)cnc2N2CCC(F)(F)CC2)c1
45

---

Target: Sodium channel protein type 10 subunit alpha (Homo sapiens, UniProt Q9Y5Y9)
Sequence (Q9Y5Y9 whole entry): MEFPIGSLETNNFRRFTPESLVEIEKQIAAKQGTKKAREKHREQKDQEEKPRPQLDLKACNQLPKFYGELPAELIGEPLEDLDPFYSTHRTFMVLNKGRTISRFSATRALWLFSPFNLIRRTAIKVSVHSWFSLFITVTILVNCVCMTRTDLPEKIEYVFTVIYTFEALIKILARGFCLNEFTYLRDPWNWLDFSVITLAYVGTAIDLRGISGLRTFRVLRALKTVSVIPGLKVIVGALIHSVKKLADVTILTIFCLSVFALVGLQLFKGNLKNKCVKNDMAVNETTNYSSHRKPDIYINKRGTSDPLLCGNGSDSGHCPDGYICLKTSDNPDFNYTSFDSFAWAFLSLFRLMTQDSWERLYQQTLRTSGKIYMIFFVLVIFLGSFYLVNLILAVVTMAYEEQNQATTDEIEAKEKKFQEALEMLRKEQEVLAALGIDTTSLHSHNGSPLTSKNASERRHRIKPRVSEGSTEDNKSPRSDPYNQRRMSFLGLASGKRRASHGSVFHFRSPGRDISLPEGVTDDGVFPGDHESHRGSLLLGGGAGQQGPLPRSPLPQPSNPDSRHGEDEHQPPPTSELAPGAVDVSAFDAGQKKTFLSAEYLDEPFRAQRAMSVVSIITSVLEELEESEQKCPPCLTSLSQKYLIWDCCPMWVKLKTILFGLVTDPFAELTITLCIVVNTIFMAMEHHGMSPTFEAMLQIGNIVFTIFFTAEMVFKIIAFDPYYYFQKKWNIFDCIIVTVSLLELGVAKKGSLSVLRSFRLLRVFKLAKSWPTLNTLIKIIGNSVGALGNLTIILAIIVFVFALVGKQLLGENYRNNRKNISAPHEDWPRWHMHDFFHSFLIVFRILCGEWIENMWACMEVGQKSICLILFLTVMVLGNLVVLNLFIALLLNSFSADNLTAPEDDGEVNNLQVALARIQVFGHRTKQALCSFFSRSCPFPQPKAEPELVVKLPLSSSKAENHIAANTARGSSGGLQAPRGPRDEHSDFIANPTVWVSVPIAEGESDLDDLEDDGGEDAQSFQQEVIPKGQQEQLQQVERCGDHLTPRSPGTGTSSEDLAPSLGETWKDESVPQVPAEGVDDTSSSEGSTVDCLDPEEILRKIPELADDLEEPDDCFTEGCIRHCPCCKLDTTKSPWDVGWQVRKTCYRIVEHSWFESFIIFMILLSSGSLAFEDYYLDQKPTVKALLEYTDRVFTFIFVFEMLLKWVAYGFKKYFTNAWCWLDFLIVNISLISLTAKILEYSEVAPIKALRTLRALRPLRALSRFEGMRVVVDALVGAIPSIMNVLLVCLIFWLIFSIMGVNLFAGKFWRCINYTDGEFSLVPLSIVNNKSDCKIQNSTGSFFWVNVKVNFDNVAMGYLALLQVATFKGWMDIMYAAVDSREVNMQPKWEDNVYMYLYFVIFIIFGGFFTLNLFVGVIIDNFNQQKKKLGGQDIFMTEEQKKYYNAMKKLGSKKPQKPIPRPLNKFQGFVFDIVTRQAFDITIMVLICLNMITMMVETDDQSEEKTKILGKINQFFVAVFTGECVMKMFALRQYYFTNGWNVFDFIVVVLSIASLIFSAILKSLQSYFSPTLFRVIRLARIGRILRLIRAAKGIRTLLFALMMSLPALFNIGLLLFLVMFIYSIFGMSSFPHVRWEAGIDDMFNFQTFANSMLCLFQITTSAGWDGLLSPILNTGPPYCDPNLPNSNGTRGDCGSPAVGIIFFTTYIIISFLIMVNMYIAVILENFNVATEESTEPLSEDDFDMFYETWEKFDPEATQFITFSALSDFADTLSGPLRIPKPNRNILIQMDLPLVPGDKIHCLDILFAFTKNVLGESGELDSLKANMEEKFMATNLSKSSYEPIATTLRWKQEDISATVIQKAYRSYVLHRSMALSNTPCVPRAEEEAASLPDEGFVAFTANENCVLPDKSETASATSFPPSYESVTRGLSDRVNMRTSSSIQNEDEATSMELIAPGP
Test: Inhibition of recombinant human Nav1.8 expressed in HEK293 cells by whole cell patch clamp method
Test Readout: pEC50
The value called pEC50 is obtained by taking minus log10 of the concentration in mol/L.

For orientation, consider the following solved cases.
Cc1cc(C(=O)Nc2cccc(S(N)(=O)=O)c2)c(N2CCCCC2)nc1C ... 6.49
NS(=O)(=O)c1cccc(NC(=O)c2cc3ccccc3nc2N2CCOCC2)c1 ... 5.70
NS(=O)(=O)c1cccc(NC(=O)c2ccc(C(F)(F)F)nc2N2CCCCC2)c1 ... 6.54
NS(=O)(=O)c1cccc(NC(=O)c2cccnc2N2CCCCC2)c1 ... 4.66
NS(=O)(=O)c1cccc(NC(=O)c2cc(C(F)(F)F)cnc2N2CCCC(F)(F)C2)c1 ... 6.62
Cc1ccc(C(=O)Nc2cccc(S(N)(=O)=O)c2)c(N2CCCCC2)n1 ... 6.07

Shift focus to the following entry.
Please report the measured pEC50 for NS(=O)(=O)c1cccc(NC(=O)c2nc3ccccc3nc2N2CCCCC2)c1
6.96

---

Test: Half-life in rat plasma at 0.05 mg/kg, iv administered as cassette dose
Assay type: ADME, organism-based
Below, each entry is listed with its recorded half-life.
Your answer is read as min, so omit the unit and give the number.

For orientation, consider the following solved cases.
Cc1ccc(C(=O)Nc2cccc(S(N)(=O)=O)c2)c(N2CCCCC2)n1 ... 33
NS(=O)(=O)c1cccc(NC(=O)c2cc(C(F)(F)F)cnc2N2CCCC(F)(F)CC2)c1 ... 66
NS(=O)(=O)c1cccc(NC(=O)c2cc(C(F)(F)F)cnc2N2CCCC3(CC3)C2)c1 ... 43.2
NS(=O)(=O)c1cccc(NC(=O)c2cc(C(F)(F)F)cnc2N2CCC3(CC2)CC3)c1 ... 168

Shift focus to the following entry.
Please report the measured half-life for NS(=O)(=O)c1cccc(NC(=O)c2cc(C(F)(F)F)cnc2N2CCCCCC2)c1
37.2

---

Test: Bioavailability in rat at 10 mg/kg, po or 2 mg/kg, iv
Format: ADME, organism-based
Details: in vivo
Test Readout: bioavailability (%)
Your answer is read as %, so omit the unit and give the number.

Please report the measured bioavailability for NS(=O)(=O)c1cccc(NC(=O)c2cc(C(F)(F)F)cnc2N2CCC(F)(F)CC2)c1
82

---

Test: Apparent permeability of compound
Format: ADME
Settings: not told
Test Readout: Papp (×10⁻⁶ cm/s)
Your answer is read as ×10⁻⁶ cm/s, so omit the unit and give the number.

Please report the measured Papp for NS(=O)(=O)c1cccc(NC(=O)c2cc(C(F)(F)F)cnc2N2CCC(F)(F)CC2)c1
28

---

Biological target: Sodium channel protein type 10 subunit alpha (Homo sapiens)
Assay: Inhibition of recombinant human Nav1.8 expressed in HEK293 cells by whole cell patch clamp method
I'd appreciate it if you marked entries Fulfilled when EC50 is lower than 2000 nM and Not fulfilled when it is not.

Solved entries:
CN1CCN(c2nc3ccccc3cc2C(=O)Nc2cccc(S(N)(=O)=O)c2)CC1 ... Not fulfilled
NS(=O)(=O)c1cccc(NC(=O)c2cc(C(F)(F)F)cnc2N2CCC(F)(F)CC2)c1 ... Fulfilled
NS(=O)(=O)c1cccc(NC(=O)c2cc(C(F)(F)F)cnc2N2CCCC3(CC3)C2)c1 ... Fulfilled
CN1CCN(c2nc3ccccc3nc2C(=O)Nc2cccc(S(N)(=O)=O)c2)CC1 ... Not fulfilled
NS(=O)(=O)c1cccc(NC(=O)c2cc(C(F)(F)F)cnc2N2CCCCCC2)c1 ... Fulfilled

Determine if NS(=O)(=O)c1cccc(NC(=O)c2cc(C(F)(F)F)cnc2N2CCC3(CC2)CC3)c1 shows EC50 strictly lower than 2000 nM.
Fulfilled

Determine if NS(=O)(=O)c1cccc(NC(=O)c2cc(C(F)(F)F)cnc2N2CCCCC2)c1 shows EC50 strictly lower than 2000 nM.
Fulfilled

Determine if Cc1cnc(N2CCCCC2)c(C(=O)Nc2cccc(S(N)(=O)=O)c2)c1 shows EC50 strictly lower than 2000 nM.
Not fulfilled

---

Assay: Half life in rhesus monkey at 2 mg/kg, po or 1 mg/kg, iv
Format: ADME, organism-based, Macaca mulatta
Details: in vivo
Test Readout: half-life (min)
Your answer is read as min, so omit the unit and give the number.

Please report the measured half-life for NS(=O)(=O)c1cccc(NC(=O)c2cc(C(F)(F)F)cnc2N2CCC(F)(F)CC2)c1
396

---

Below, each entry is listed with its recorded pEC50.
Biological target: Sodium channel protein type 5 subunit alpha (Homo sapiens)
Sequence (Q14524 whole entry): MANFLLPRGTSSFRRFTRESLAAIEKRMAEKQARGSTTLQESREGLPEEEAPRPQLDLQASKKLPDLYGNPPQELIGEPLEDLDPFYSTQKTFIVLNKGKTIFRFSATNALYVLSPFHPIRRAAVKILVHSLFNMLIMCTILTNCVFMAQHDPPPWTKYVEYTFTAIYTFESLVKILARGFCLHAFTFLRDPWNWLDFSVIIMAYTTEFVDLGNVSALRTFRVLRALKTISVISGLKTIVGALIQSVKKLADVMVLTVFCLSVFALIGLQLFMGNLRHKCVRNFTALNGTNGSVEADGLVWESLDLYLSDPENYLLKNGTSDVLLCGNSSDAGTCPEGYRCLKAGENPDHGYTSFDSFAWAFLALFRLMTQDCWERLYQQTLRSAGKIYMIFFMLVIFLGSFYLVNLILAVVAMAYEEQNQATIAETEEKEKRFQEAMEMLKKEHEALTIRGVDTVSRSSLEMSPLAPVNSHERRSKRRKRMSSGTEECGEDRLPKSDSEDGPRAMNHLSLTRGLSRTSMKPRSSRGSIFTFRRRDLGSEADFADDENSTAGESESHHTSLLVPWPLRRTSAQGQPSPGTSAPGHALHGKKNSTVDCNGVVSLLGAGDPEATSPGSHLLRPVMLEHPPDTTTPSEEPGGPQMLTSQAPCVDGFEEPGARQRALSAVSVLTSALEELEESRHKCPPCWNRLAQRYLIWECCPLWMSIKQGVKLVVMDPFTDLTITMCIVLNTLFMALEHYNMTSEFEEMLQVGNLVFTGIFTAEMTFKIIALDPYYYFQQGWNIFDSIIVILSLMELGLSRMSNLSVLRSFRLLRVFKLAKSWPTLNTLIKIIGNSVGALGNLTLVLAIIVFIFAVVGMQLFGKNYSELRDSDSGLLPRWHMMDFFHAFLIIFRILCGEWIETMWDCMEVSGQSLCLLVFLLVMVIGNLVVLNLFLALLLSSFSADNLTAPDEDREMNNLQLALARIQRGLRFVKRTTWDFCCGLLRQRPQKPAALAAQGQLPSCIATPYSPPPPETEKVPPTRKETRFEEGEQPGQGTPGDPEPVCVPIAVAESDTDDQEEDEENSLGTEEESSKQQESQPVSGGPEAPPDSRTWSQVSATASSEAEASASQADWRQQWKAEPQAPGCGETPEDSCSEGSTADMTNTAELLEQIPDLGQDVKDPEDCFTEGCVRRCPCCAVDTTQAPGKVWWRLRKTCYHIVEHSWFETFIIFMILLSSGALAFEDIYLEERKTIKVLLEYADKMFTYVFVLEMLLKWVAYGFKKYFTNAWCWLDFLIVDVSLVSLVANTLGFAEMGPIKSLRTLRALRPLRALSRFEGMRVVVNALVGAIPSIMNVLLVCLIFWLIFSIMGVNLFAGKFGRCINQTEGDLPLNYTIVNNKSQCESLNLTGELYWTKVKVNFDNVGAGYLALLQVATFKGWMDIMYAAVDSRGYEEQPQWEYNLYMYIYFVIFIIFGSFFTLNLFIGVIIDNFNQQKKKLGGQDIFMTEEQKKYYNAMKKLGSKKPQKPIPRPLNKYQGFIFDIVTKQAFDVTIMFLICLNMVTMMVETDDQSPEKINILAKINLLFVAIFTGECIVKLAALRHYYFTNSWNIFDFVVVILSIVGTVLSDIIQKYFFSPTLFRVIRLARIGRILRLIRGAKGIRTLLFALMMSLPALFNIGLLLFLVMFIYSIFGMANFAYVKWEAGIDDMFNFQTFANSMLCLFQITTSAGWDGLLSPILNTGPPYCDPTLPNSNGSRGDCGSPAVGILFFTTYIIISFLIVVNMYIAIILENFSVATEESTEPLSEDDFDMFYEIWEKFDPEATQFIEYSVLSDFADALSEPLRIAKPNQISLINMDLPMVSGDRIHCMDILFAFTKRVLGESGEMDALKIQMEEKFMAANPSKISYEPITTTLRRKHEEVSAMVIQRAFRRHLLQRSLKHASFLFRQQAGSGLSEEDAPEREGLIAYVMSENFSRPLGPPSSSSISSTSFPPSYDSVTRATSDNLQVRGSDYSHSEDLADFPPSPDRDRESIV
Assay: Inhibition of Nav1.5 (unknown origin)
pEC50: −log10 of the molar value.

For orientation, consider the following solved cases.
NS(=O)(=O)c1cccc(NC(=O)c2cc(C(F)(F)F)cnc2N2CCC(F)(F)CC2)c1 ... < 4.52
CC(C)(C)c1cc(C(=O)Nc2cccc(S(N)(=O)=O)c2)n(Cc2ccccc2)n1 ... < 4.52

Shift focus to the following entry.
Please report the measured pEC50 for COc1ccccc1NC(=O)c1nc2ccccc2nc1N1CCCCC1
< 4.52
